pIC50 tested on ROCK2 (human) (UniProt O75116): recorded values
Sequence (O75116 whole entry, looked up): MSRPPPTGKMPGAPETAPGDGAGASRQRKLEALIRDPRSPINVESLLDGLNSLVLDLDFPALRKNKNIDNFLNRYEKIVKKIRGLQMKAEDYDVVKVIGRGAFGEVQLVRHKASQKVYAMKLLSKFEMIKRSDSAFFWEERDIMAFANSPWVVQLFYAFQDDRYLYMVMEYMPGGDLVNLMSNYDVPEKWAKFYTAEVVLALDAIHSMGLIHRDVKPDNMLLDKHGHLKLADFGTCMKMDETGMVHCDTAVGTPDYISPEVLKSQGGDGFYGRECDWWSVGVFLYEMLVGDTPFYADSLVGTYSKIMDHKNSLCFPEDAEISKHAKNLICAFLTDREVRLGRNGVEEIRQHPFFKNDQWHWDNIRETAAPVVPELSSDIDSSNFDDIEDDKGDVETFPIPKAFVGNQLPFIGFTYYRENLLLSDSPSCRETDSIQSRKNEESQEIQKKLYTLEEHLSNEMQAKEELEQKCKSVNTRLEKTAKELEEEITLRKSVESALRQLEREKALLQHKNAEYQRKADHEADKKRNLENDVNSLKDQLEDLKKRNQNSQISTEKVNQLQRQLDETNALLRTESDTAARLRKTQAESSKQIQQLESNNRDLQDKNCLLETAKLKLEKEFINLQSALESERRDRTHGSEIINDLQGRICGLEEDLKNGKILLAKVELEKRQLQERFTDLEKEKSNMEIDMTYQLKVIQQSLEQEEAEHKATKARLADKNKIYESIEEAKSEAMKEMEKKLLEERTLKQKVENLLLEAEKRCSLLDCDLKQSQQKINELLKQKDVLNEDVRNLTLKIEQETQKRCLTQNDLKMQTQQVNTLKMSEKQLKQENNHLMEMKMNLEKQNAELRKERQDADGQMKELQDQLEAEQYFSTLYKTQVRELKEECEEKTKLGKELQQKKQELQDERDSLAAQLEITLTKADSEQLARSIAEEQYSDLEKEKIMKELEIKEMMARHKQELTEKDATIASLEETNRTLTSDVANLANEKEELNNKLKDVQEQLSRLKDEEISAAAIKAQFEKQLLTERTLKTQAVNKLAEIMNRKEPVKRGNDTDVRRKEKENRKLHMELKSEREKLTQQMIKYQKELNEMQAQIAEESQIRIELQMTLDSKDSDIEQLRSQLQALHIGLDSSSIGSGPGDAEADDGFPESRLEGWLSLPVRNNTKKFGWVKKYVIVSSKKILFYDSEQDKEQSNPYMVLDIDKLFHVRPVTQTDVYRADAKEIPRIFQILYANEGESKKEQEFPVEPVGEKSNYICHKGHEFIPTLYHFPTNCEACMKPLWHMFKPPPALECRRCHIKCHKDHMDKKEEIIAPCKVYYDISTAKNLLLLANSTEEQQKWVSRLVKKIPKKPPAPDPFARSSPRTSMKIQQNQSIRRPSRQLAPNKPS
To interpret pIC50, take it as minus log10 of a concentration measured in moles per litre.

COc1ccc2c(c1)CC(c1nc3cc(-c4ccnc(N)n4)ccc3o1)CO2 (stereo not given): 6.03
Nc1nccc(-c2ccc3nc(C4COc5ccccc5O4)oc3c2)n1 (stereo not given): 7.68
COc1cccc(CN(CCN2CCCC2)C(=O)c2nc3ccc(-c4cn[nH]c4)cc3s2)c1: 7.37

# input Provide value of pIC50 for this record tested with ROCK2 (human) (UniProt O75116): COc1ccc2c(c1)CC(c1nc3ccc(-c4c[nH]nc4C)cc3o1)CO2 (stereo not given)
# output 7.80

# input What reported pIC50 corresponds to COc1cccc(CN(CCCN(C)C)C(=O)c2nc3ccc(-c4cn[nH]c4)cc3s2)c1 on ROCK2 (human) (UniProt O75116)?
# output 8.37

---

measured_target: ROCK2 (human) (UniProt O75116)
Grouping by measured IC50 is done with the following cut points: LOW = under 2 nM, MID = from 2 nM up to 10 nM, HIGH = 10 nM and over

Completed entries (count: 3):
O=C(Nc1nc2ccc(-c3cn[nH]c3)cc2s1)[C@H]1CNC[C@@H]1c1ccccc1: HIGH
COc1cccc(CN(CCO)C(=O)c2nc3ccc(-c4cn[nH]c4)cc3s2)c1: MID
CN(C)CCCNC(=O)c1ccc2c(c1)CC(c1nc3ccc(-c4cn[nH]c4)cc3s1)CO2 (centres undefined): LOW

# input Just checking, what class would you give O=C(Nc1nc2ccc(-c3cn[nH]c3)cc2s1)C1COc2ccccc2C1 (centres undefined) here?
# output HIGH

# input Band for COc1ccc2c(c1)CC(c1nc3ccc(-c4cn[nH]c4)cc3o1)CO2 (centres undefined) ?
# output LOW

# input Category lookup for the molecule COc1ccc2c(c1)CC(c1nc3ccc(-c4ccncc4)cc3o1)CO2 (centres undefined)
# output MID

# input Please classify: Cc1n[nH]cc1-c1ccc2nc(C3COc4ccc(F)cc4C3)oc2c1 (centres undefined)
# output MID

# input Class for COc1cccc(C(=O)Nc2nc3ccc(-c4ccncc4)cc3s2)c1 ?
# output HIGH

Measured values drawn from the Kinase Knowledgebase extract (Sharma et al. 2016) for this set.
